In this section we review reported EC50 values for a set of molecules.
Molecular target: UniProt P30559
Experiment: Agonist activity at human OTR expressed in CHO cells assessed as calcium mobilization measured after 30 mins by Fluo-4-AM dye based FLIPR assay
Numbered stars: 1 amine (or outer) side, 2 acyl side, 3 side chain; on linkers, the order of the positions; unused ones are H or OH. Bridge positions count the residues as written; N and C are the ends. Square brackets hold non-standard residues; d marks the D form. Peptide text beside a SMILES is read from it. Hyp = O=C(O)[C@@H]1C[C@@H](O)CN1; Suc = O=C(CCC(=O)[*:2])[*:1]; Dap = NC[C@H](N)C(=O)O; βAla = NCCC(=O)O; Mpa = O=C(O)CCS
readout: EC50

- molecule: "CC[C@H](C)[C@@H]1NC(=O)[C@H](Cc2ccc(O)cc2)NC(=O)CCSSC[C@@H](C(=O)N2CCCCC2C(=O)N[C@@H](CC(C)C)C(=O)NCC(N)=O)NC(=O)[C@H](CC(N)=O)NC(=O)[C@H](CCC(N)=O)NC1=O (stereo partly drawn)"
  readout: "EC50"
  measured: "0.013 nM"
- molecule: "CC[C@H](C)[C@@H]1NC(=O)[C@H](CCCNC(=N)N)NC(=O)CCSSC[C@@H](C(=O)N2CCC[C@H]2C(=O)N[C@@H](CC(C)C)C(=O)NCC(N)=O)NC(=O)[C@H](CC(N)=O)NC(=O)[C@H](CCC(N)=O)NC1=O ([Mpa]RIQNCPLG-NH2; disulfide 1-6)"
  readout: "EC50"
  measured: "> 100 nM"
- molecule: "CC[C@H](C)[C@@H]1NC(=O)[C@H](Cc2ccc(O)cc2)NC(=O)CCSSC[C@@H](C(=O)NCC(=O)N[C@@H](CC(C)C)C(=O)NCC(N)=O)NC(=O)[C@H](CC(N)=O)NC(=O)[C@H](CCC(N)=O)NC1=O ([Mpa]YIQNCGLG-NH2; disulfide 1-6)"
  readout: "EC50"
  measured: "0.013 nM"
- molecule: "CC[C@H](C)[C@@H]1NC(=O)[C@H](Cc2ccc(O)cc2)NC(=O)CCNC(=O)C[C@@H](C(=O)N2CCC[C@H]2C(=O)N[C@@H](CC(C)C)C(=O)NCC(N)=O)NC(=O)[C@H](CC(N)=O)NC(=O)[C@H](CCC(N)=O)NC1=O ([βAla]YIQNDPLG-NH2; lactam N-6)"
  readout: "EC50"
  measured: "13 nM"
- molecule: "CC[C@H](C)[C@@H]1NC(=O)[C@H](Cc2ccc(O)cc2)NC(=O)CCSSC[C@@H](C(=O)N2CCC[C@H]2C(=O)N[C@@H](CC(C)C)C(=O)NCC(N)=O)NC(=O)[C@H](CC(C)C)NC(=O)[C@H](CCC(N)=O)NC1=O ([Mpa]YIQLCPLG-NH2; disulfide 1-6)"
  readout: "EC50"
  measured: "> 100 nM"
- molecule: "CC[C@H](C)[C@@H]1NC(=O)[C@H](Cc2ccc(O)cc2)NC(=O)CCSSC[C@@H](C(=O)N2CCC[C@H]2C(=O)N[C@@H](CC(C)C)C(=O)NCC(N)=O)NC(=O)[C@H](CC(N)=O)NC(=O)[C@H](CCC(=O)O)NC1=O ([Mpa]YIENCPLG-NH2; disulfide 1-6)"
  readout: "EC50"
  measured: "5.1 nM"
- molecule: "CC[C@H](C)[C@@H]1NC(=O)[C@H](Cc2ccc(O)cc2)NC(=O)CCSSC[C@@H](C(=O)N2C[C@H](O)C[C@H]2C(=O)N[C@@H](CC(C)C)C(=O)NCC(N)=O)NC(=O)[C@H](CC(N)=O)NC(=O)[C@H](CCC(N)=O)NC1=O"
  readout: "EC50"
  measured: "0.0053 nM"
- molecule: "CC[C@H](C)[C@@H]1NC(=O)[C@H](Cc2ccc(O)cc2)NC(=O)CCC(=O)NC[C@@H](C(=O)N2C[C@H](O)C[C@H]2C(=O)N[C@@H](CC(C)C)C(=O)NCC(N)=O)NC(=O)[C@H](CC(N)=O)NC(=O)[C@H](CCC(N)=O)NC1=O (YIQN[Dap][Hyp]LG-NH2; linker N-5 via Suc)"
  readout: "EC50"
  measured: "0.013 nM"

----------
Species: Homo sapiens
Assay: Selectivity ratio of EC50 for human V1b receptor to EC50 for human OTR
Numbered stars: 1 amine (or outer) side, 2 acyl side, 3 side chain; on linkers, the order of the positions; unused ones are H or OH. Bridge positions count the residues as written; N and C are the ends. Square brackets hold non-standard residues; d marks the D form. Peptide text beside a SMILES is read from it. Hyp = O=C(O)[C@@H]1C[C@@H](O)CN1; tBuAla = CC(C)(C)C[C@H](N)C(=O)O; Suc = O=C(CCC(=O)[*:2])[*:1]; NMeS = CN[C@@H](CO)C(=O)O; Dap = NC[C@H](N)C(=O)O; azaGly = NNC(=O)O; Mpa = O=C(O)CCS
readout: Ratio EC50

- molecule: "CCCCCC[C@H](NC(=O)[C@@H]1CCCN1C(=O)[C@@H]1CSSCCC(=O)N[C@@H](Cc2ccc(O)cc2)C(=O)N[C@@H]([C@@H](C)CC)C(=O)N[C@@H](CCC(N)=O)C(=O)N[C@@H](CC(N)=O)C(=O)N1)C(=O)NCC(N)=O"
  censor-symbol: "="
  measured: 20
- molecule: "CC[C@H](C)[C@@H]1NC(=O)[C@H](Cc2ccc(O)cc2)NC(=O)CCC(=O)NC[C@@H](C(=O)N2C[C@H](O)C[C@H]2C(=O)N[C@@H](CC(C)C)C(=O)NNC(N)=O)NC(=O)[C@H](CC(N)=O)NC(=O)[C@H](CCC(N)=O)NC1=O (YIQN[Dap][Hyp]L[azaGly]-NH2; linker N-5 via Suc)"
  censor-symbol: ">"
  measured: 1000
- molecule: "CC[C@H](C)[C@@H]1NC(=O)[C@H](Cc2ccc(O)cc2)NC(=O)CCSSC[C@@H](C(=O)N[C@@H](Cc2ccccc2)C(=O)N[C@@H](CC(C)C)C(=O)NCC(N)=O)NC(=O)[C@H](CC(N)=O)NC(=O)[C@H](CCC(N)=O)NC1=O ([Mpa]YIQNCFLG-NH2; disulfide 1-6)"
  censor-symbol: ">"
  measured: 100
- molecule: "CC[C@H](C)[C@@H]1NC(=O)[C@H](Cc2ccc(O)cc2)NC(=O)CCSSC[C@@H](C(=O)N2CCC[C@H]2C(=O)N[C@@H](CC(C)C)C(=O)NCC(N)=O)NC(=O)[C@H](CC(N)=O)NC(=O)[C@H](CC(C)C)NC1=O ([Mpa]YILNCPLG-NH2; disulfide 1-6)"
  censor-symbol: "="
  measured: 29
- molecule: "CC[C@H](C)[C@@H]1NC(=O)[C@H](Cc2ccc(O)cc2)NC(=O)CCSSC[C@@H](C(=O)N2CCC[C@H]2C(=O)N[C@@H](CC(C)C)C(=O)NCC(N)=O)NC(=O)[C@H](CC(N)=O)NC(=O)[C@H](CO)NC1=O ([Mpa]YISNCPLG-NH2; disulfide 1-6)"
  censor-symbol: "="
  measured: 120
- molecule: "CC[C@H](C)[C@@H]1NC(=O)[C@H](Cc2ccc(O)cc2)NC(=O)CCC(=O)NC[C@@H](C(=O)N2CCC[C@H]2C(=O)N[C@@H](CC(C)(C)C)C(=O)NCC(N)=O)NC(=O)[C@H](CC(N)=O)NC(=O)[C@H](CCC(N)=O)NC1=O (YIQN[Dap]P[tBuAla]G-NH2; linker N-5 via Suc)"
  censor-symbol: ">"
  measured: 100
- molecule: "CC[C@H](C)[C@@H]1NC(=O)[C@H](Cc2ccc(O)cc2)NC(=O)CCSSC[C@@H](C(=O)N(C)[C@@H](CO)C(=O)N[C@@H](CC(C)C)C(=O)NCC(N)=O)NC(=O)[C@H](CC(N)=O)NC(=O)[C@H](CCC(N)=O)NC1=O ([Mpa]YIQNC[NMeS]LG-NH2; disulfide 1-6)"
  censor-symbol: ">"
  measured: 1000

----------
Target: Oxytocin receptor (Homo sapiens, UniProt P30559)
Sequence (P30559 whole entry): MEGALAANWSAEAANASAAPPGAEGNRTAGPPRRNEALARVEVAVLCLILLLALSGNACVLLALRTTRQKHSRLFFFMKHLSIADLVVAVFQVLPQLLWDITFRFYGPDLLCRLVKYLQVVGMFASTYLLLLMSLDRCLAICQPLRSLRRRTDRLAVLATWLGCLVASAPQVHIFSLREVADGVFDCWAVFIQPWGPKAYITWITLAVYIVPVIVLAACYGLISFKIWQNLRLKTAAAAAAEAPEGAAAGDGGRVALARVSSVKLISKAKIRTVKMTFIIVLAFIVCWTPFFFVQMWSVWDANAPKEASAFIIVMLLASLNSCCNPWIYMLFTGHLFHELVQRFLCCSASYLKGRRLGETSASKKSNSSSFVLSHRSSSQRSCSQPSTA
Test: Agonist activity at human OTR expressed in CHO cells assessed as calcium mobilization measured after 30 mins by Fluo-4-AM dye based FLIPR assay
Numbered stars: 1 amine (or outer) side, 2 acyl side, 3 side chain; on linkers, the order of the positions; unused ones are H or OH. Bridge positions count the residues as written; N and C are the ends. Square brackets hold non-standard residues; d marks the D form. Peptide text beside a SMILES is read from it. Hyp = O=C(O)[C@@H]1C[C@@H](O)CN1; Suc = O=C(CCC(=O)[*:2])[*:1]; Dap = NC[C@H](N)C(=O)O; azaGly = NNC(=O)O; Mpa = O=C(O)CCS
EC50 vs 0.2 nM: less than gives yes; not less than gives no.

- compound: "CC[C@H](C)[C@@H]1NC(=O)[C@H](Cc2ccc(O)cc2)NC(=O)CCSSC[C@@H](C(=O)N2CCC[C@H]2C(=O)N[C@@H](CC(C)C)C(=O)NCC(N)=O)NC(=O)[C@H](CCC(=O)O)NC(=O)[C@H](CCC(N)=O)NC1=O ([Mpa]YIQECPLG-NH2; disulfide 1-6)"
  label-value: "no"
- compound: "CC[C@H](C)[C@@H]1NC(=O)[C@H](Cc2ccccc2)NC(=O)CCSSC[C@@H](C(=O)N2CCC[C@H]2C(=O)N[C@@H](CC(C)C)C(=O)NCC(N)=O)NC(=O)[C@H](CC(N)=O)NC(=O)[C@H](CCC(N)=O)NC1=O ([Mpa]FIQNCPLG-NH2; disulfide 1-6)"
  label-value: "yes"
- compound: "CC[C@H](C)[C@@H]1NC(=O)[C@H](CC(C)C)NC(=O)CCSSC[C@@H](C(=O)N2CCC[C@H]2C(=O)N[C@@H](CC(C)C)C(=O)NCC(N)=O)NC(=O)[C@H](CC(N)=O)NC(=O)[C@H](CCC(N)=O)NC1=O ([Mpa]LIQNCPLG-NH2; disulfide 1-6)"
  label-value: "no"
- compound: "CC[C@H](C)[C@@H]1NC(=O)[C@H](Cc2ccc(O)cc2)NC(=O)CCSSC[C@@H](C(=O)N2CCC[C@H]2C(=O)N[C@@H](CC(C)C)C(=O)NCC(N)=O)NC(=O)[C@H](CC(N)=O)NC(=O)[C@H](C)NC1=O ([Mpa]YIANCPLG-NH2; disulfide 1-6)"
  label-value: "no"
- compound: "CC[C@H](C)[C@@H]1NC(=O)[C@H](Cc2ccc(O)cc2)NC(=O)CCC(=O)NC[C@@H](C(=O)N2C[C@H](O)C[C@H]2C(=O)N[C@@H](CC(C)C)C(=O)NNC(N)=O)NC(=O)[C@H](CC(N)=O)NC(=O)[C@H](CCC(N)=O)NC1=O (YIQN[Dap][Hyp]L[azaGly]-NH2; linker N-5 via Suc)"
  label-value: "yes"
- compound: "CC[C@H](C)[C@@H]1NC(=O)[C@H](Cc2ccc(O)cc2)NC(=O)CCSSC[C@@H](C(=O)N2CCC[C@H]2C(=O)N[C@@H](CC(C)C)C(=O)NCC(N)=O)NC(=O)[C@H](Cc2ccccc2)NC(=O)[C@H](CCC(N)=O)NC1=O ([Mpa]YIQFCPLG-NH2; disulfide 1-6)"
  label-value: "no"
- compound: "CC[C@H](C)[C@@H]1NC(=O)[C@H](Cc2ccc(O)cc2)NC(=O)CCSSC[C@@H](C(=O)N2CCC[C@H]2C(=O)N[C@@H](C)C(=O)NCC(N)=O)NC(=O)[C@H](CC(N)=O)NC(=O)[C@H](CCC(N)=O)NC1=O ([Mpa]YIQNCPAG-NH2; disulfide 1-6)"
  label-value: "yes"
